SYSTEM_UNDER_TEST: Free fatty acid receptor 4 (Rattus norvegicus, UniProt Q2AC31)
Sequence (Q2AC31 whole entry): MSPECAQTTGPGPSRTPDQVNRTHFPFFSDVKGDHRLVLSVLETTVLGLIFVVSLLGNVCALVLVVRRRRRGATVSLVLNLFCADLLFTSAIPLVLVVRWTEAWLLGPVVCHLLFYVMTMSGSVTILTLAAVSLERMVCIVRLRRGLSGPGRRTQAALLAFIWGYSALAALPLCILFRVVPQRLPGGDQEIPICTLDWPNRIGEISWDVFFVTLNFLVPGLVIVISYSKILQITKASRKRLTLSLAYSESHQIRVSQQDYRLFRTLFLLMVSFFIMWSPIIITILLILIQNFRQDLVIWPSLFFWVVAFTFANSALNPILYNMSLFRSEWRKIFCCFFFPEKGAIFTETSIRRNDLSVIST
TEST_NAME: Agonist activity at recombinant rat GPR120 expressed in HEK293 cells
ASSAY_ENDPOINT: pEC50
Notebook: values listed as pEC50 are -log10 of the concentration (mol/L).

Field pEC50 (entry O=C(O)CCc1cc(F)c(OCc2c(C(F)(F)F)ccn2-c2ccc(Cl)cc2)c(F)c1 ) reads 6.15

====

TEST_NAME: Half life in rat at 10 mg/kg, po by LC-MS/MS analysis
Assay type: ADME, organism-based
COND: in vivo
ASSAY_ENDPOINT: half-life (h)
The reply should be a number in h, with the unit left off.

Entry O=C(O)CCc1cc(F)c(OCc2c(C(F)(F)F)ccn2-c2ccc(Cl)cc2)c(F)c1 , half-life reported as 2.87
